measurementNotes: PET/CT DOTATOC uptake by subcutaneous Jurkat T cell xenografts (0-100% SSTR2+)
Assay type: in vivo, NSG mice
assayContext: NSG (NOD/LtSz Prkdc^scid Il2rg^tm1Wjl/J), mouse, subcutaneous Jurkat tumor xenograft, tumors below 65 mm^3, 1% SSTR2+
Experimental: All animal experiments were performed in strict accordance with the recommendations in the Guide for the Care and Use of Laboratory Animals of the National Institutes of Health. This study's animal protocol was approved by the Institutional Laboratory Animal Use and Care Committee of Weill Cornell Medicine. […] Tumor volume was calculated by using the modified ellipsoid formula 1/2(Length×Width^2). Length was measured as the longer dimension. […]
valueType: tissue uptake per volume (%ID/mL)
Numbers only; they are read as %ID/mL.

query: // query tissue uptake per volume value for entry C[C@@H](O)[C@@H]1NC(=O)[C@H](CCCCN)NC(=O)[C@@H](Cc2c[nH]c3ccccc23)NC(=O)[C@H](Cc2ccc(O)cc2)NC(=O)[C@@H](NC(=O)[C@@H](Cc2ccccc2)NC(=O)CN2CCN(CC(=O)O)CCN(CC(=O)O)CCN(CC(=O)O)CC2)CSSC[C@@H](C(=O)N[C@H](CO)[C@@H](C)O)NC1=O
result: 0.64

---

measurementNotes: PET/CT DOTATOC uptake by subcutaneous Jurkat T cell xenografts (0-100% SSTR2+)
Type: in vivo, NSG mice
assayContext: NSG (NOD/LtSz Prkdc^scid Il2rg^tm1Wjl/J), mouse, subcutaneous Jurkat tumor xenograft, tumors larger than 65 mm^3, 0% SSTR2+
valueType: tissue uptake per volume
Respond with a number, then the unit of measure.

query: // query tissue uptake per volume value for entry C[C@@H](O)[C@@H]1NC(=O)[C@H](CCCCN)NC(=O)[C@@H](Cc2c[nH]c3ccccc23)NC(=O)[C@H](Cc2ccc(O)cc2)NC(=O)[C@@H](NC(=O)[C@@H](Cc2ccccc2)NC(=O)CN2CCN(CC(=O)O)CCN(CC(=O)O)CCN(CC(=O)O)CC2)CSSC[C@@H](C(=O)N[C@H](CO)[C@@H](C)O)NC1=O
result: 0.8 %ID/mL

---

measurementNotes: PET/CT DOTATOC uptake in lungs, 8505C mouse model and controls
Assay type: in vivo, NSG mice
assayContext: NSG, lungs, DOTATOC uptake in the lungs, mice treated with RR T cells
valueType: tissue uptake per volume (%ID/mL)
Numbers only; they are read as %ID/mL.

query: // query tissue uptake per volume value for entry C[C@@H](O)[C@@H]1NC(=O)[C@H](CCCCN)NC(=O)[C@@H](Cc2c[nH]c3ccccc23)NC(=O)[C@H](Cc2ccc(O)cc2)NC(=O)[C@@H](NC(=O)[C@@H](Cc2ccccc2)NC(=O)CN2CCN(CC(=O)O)CCN(CC(=O)O)CCN(CC(=O)O)CC2)CSSC[C@@H](C(=O)N[C@H](CO)[C@@H](C)O)NC1=O
result: 1

---

measurementNotes: PET/CT DOTATOC uptake in lungs, 8505C mouse model and controls
Type: in vivo, NSG mice
assayContext: NSG, lungs, DOTATOC uptake, mice with no tumors infused with SS T cells
valueType: tissue uptake per volume (%ID/mL)
Numbers only; they are read as %ID/mL.

query: // query tissue uptake per volume value for entry C[C@@H](O)[C@@H]1NC(=O)[C@H](CCCCN)NC(=O)[C@@H](Cc2c[nH]c3ccccc23)NC(=O)[C@H](Cc2ccc(O)cc2)NC(=O)[C@@H](NC(=O)[C@@H](Cc2ccccc2)NC(=O)CN2CCN(CC(=O)O)CCN(CC(=O)O)CCN(CC(=O)O)CC2)CSSC[C@@H](C(=O)N[C@H](CO)[C@@H](C)O)NC1=O [DOTATOC]
result: 0.7
